Test system: CCRF-CEM leukemia
measurementProtocol: NCI tumour cell line growth inhibition, 48 h
measuredMetric: TGI

{"molecule": "COC(=O)c1ccc(OCc2ccc3nc(OC)c(OC)nc3c2)cc1", "assayValue": "> 100 µM"}
{"molecule": "O=C1/C(=C/c2cccnc2)C(n2cccc2)c2c(Br)sc(Br)c21 (centres undefined)", "assayValue": "10.1 µM"}
{"molecule": "O=C(O)CNC(=O)CO/N=C1/C(c2c(O)[nH]c3ccccc23)=Nc2ccccc21", "assayValue": "> 100 µM"}
{"molecule": "COc1cc2c3c(n(CCCCOC(=O)C(F)(F)F)c(=O)c2cc1OC)-c1cc2c(cc1C3=O)OCO2", "assayValue": "> 100 µM"}
{"molecule": "COC1=C2CC(C)CC(OC)[C@@H](OC(=O)CCN)[C@H](C)/C=C(\\C)C(OC(N)=O)C(OC)/C=C\\C=C(/C)C(=O)NC(=CC1=O)C2=O (some centres undefined)", "assayValue": "1.49 µM"}
{"molecule": "OCC(CN1CCCCC1)(CN1CCCCC1)CN1CCCCC1", "assayValue": "> 100 µM"}
{"molecule": "O=C1CC(c2ccc(N3CCOCC3)cc2)(c2ccsc2)NC(=O)C1Sc1ccccc1Cl (centres undefined)", "assayValue": "> 100 µM"}
{"molecule": "CC1CN=C(Nc2ccc(F)cc2F)S1 (centres undefined)", "assayValue": "> 100 µM"}
{"molecule": "C/C(=C\\C(C)COCc1ccccc1)[C@H](COCc1ccccc1)OCc1ccccc1 (some centres undefined)", "assayValue": "> 100 µM"}
{"molecule": "CC(=O)N1N=C2/C(=C/c3ccccc3)CC(C)CC2C1c1ccccc1 (centres undefined)", "assayValue": "53.9 µM"}
{"molecule": "COC(=O)[C@@H]1CN(C(=O)c2ccccc2)C(=O)N1", "assayValue": "> 100 µM"}
{"molecule": "COc1ccc(NC(=O)CC(=O)N2N=C(N3CCCCC3)CC2c2ccccc2)cc1 (centres undefined)", "assayValue": "> 100 µM"}
{"molecule": "COCc1nc2c(OC)cc(-c3nc4nc(N5CCN(C)CC5)ccc4[nH]3)c(OC)c2[nH]1", "assayValue": "75.9 µM"}
{"molecule": "CCOC(=O)c1ccc(Nc2nc3cc(C(F)(F)F)ccc3nc2-c2ccccc2)cc1", "assayValue": "> 100 µM"}
{"molecule": "COc1cc2cc(C(=O)N3CC(CCl)c4c3cc([N+](=O)[O-])c3ccccc43)[nH]c2c(OC)c1OC (centres undefined)", "assayValue": "> 100 µM"}
{"molecule": "CC1C(=O)OC2CC[N+]3(CC(=O)c4ccc(Br)cc4)CC=C(COC(=O)C(C)(O)C1(C)O)C23 (centres undefined)", "assayValue": "> 375 µM"}
{"molecule": "N#C/C(=C\\c1ccc(-c2ccc(Cl)cc2)o1)C(=O)Nc1ncc(Cc2ccc(Cl)cc2)s1", "assayValue": "> 100 µM"}
{"molecule": "C/C=C(\\C)C(=O)N[C@H]1CC[C@]2(C)C3CC[C@@]4(C)C(CC[C@@H]4C(C)N(C)C)C3CCC2[C@H]1OC(C)=O (some centres undefined)", "assayValue": "6.19 µM"}
{"molecule": "N#Cc1ccc(Oc2nc3ccccc3nc2-c2ccccc2)cc1", "assayValue": "> 100 µM"}
